System: SH-SY5Y
assayExplanation: Inhibition of H2O2-induced oxidative stress in human SH-SY5Y cells assessed as residual ROS level at 25 uM incubated for 3 hrs relative to control
Assay type: functional
quantityName: Activity (%)
Please give a number only; it is taken to be in %.

### Prompt Write down the reported Activity of COc1cc([C@@H](OC)[C@@H](CO)Oc2c(OC)cc([C@@H]3Oc4c(OC)cc([C@H](O)[C@@H](O)CO)cc4[C@H]3CO)cc2OC)ccc1O , test system: SH-SY5Y.
### Response 90.74

### Prompt Then this compound: COc1cc([C@@H](O)[C@@H](CO)Oc2c(OC)cc([C@@H]3Oc4c(OC)cc([C@H](O)[C@@H](O)CO)cc4[C@H]3CO)cc2OC)ccc1O
### Response 63.72

### Prompt // next record COc1cc([C@H](O)[C@@H](CO)Oc2ccc([C@@H](O)[C@H](CO)Oc3c(OC)cc([C@H](O)[C@@H](O)CO)cc3OC)cc2OC)ccc1O
### Response 75.9

### Prompt Same read-out for COc1cc([C@@H](O)[C@@H](CO)Oc2c(OC)cc([C@@H]3Oc4c(OC)cc([C@H](O)[C@H](O)CO)cc4[C@H]3CO)cc2OC)ccc1O ?
### Response 75.63

### Prompt Entry to check: COc1cc([C@H](OC)[C@@H](CO)Oc2c(OC)cc([C@@H]3Oc4c(OC)cc([C@H](O)[C@@H](O)CO)cc4[C@H]3CO)cc2OC)ccc1O
### Response 76.21
